- Target Under Test: T1, human PD-L1 (Acro, Catalog Number: H5229) (human, UniProt Q9NZQ7 19-238)
- T1 construct: Soluble antigen in the BLI assay; also called antigen
- T1 sequence (Q9NZQ7 19-238 limits assumed): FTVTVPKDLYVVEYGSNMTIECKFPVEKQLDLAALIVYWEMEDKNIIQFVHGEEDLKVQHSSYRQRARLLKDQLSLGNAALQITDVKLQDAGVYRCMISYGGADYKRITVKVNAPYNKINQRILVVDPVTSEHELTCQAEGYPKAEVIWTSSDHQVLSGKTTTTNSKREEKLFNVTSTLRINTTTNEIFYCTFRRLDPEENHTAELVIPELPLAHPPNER
- Assay Summary: BLI, Octet RED96e, antibody on AHC sensor, antigen 100 nM, 1:1 fit

Binder	koff
1910G2HzL4H4 (antibody, V domains shown, Only the variable domains are tied to the name; Full chains are not tied to the name; also called humanized antibody 1910G2HzL4H4; 1910G2HzL4 + 1910G2HzH4) VH: EVQLVESGGGLVQPGGSLRLSCAASGFTFSNFWMTWVRQAPGKGLEWVASITHSGGITYYPDSVKGRFTISRDDSKNTLYLQMNSLRAEDTAVYYCSRDPTEAPFDYWGQGTLVTVSS VL: DIQMTQSPSSLSASVGDRVTITCQASQNINNYIAWYQQKPGKAPKQLIRYTSTLVSGVPSRFSGSGSGKDYTFTISSLQPEDIATYYCLQYDNVPNTFGQGTKLEIK	0.000165 s⁻¹
